- measurement.target: hFZD7 CRD-Fc (human, UniProt O75084 33-185)
- run.description: spot phage ELISA
Decide using signal:noise ratio: a value greater than or equal to 5 is Y, a smaller one is N.

1. SCQMWSNLRVLFLSYW [SEQ ID NO 21] = N
2. VFVPFSELTSLC [SEQ ID NO 22] = Y
3. ERRVCYPWFEVSQP [SEQ ID NO 29] = N
4. VFFYHSLFFIKLILDP [SEQ ID NO 28] = N
5. LPSDDLEFWCHVMY (also called Fz7-21) [SEQ ID NO 13] = Y
6. YEHLHDLMDLIRPW (also called Fz7-07) [SEQ ID NO 1] = Y
7. FLPDQHSHLFLPWGEP [SEQ ID NO 20] = Y
8. NPPPECFLSK [SEQ ID NO 27] = Y
9. DTDLLQWCLWFT [SEQ ID NO 14] = Y
10. FWMQLQDGFAIWFP [SEQ ID NO 15] = Y
11. GDFWPGSLLWEILV [SEQ ID NO 17] = N
12. FWMLLQEGFAFWFP [SEQ ID NO 7] = Y
13. EHDLLLRAMNSFVLIF [SEQ ID NO 25] = Y
14. PQDLLDWCHYMIVSSD [SEQ ID NO 3] = Y
15. ACSYVIDLWNQCLT [SEQ ID NO 4] = Y
16. NAFWRDQCLEWFIICL [SEQ ID NO 24] = Y
